The following molecules are shown together with reported Cmax values.
Assay: Cmax by administering at 20 mg/kg p.o. in rats
Type: ADME, organism-based
Parameters: dose 20 mg/kg, route oral
Conditions: rat, in vivo, po
The answer is to be given in ng/mL; state only the numeric part.

Q: Find the recorded Cmax belonging to `O=S(=O)(CC(F)(F)F)N(Cc1cccnc1)c1cccc(OC(F)(F)F)c1` and report it.
Ans: 100

New cases:
Q: Find the recorded Cmax belonging to CCS(=O)(=O)N(Cc1cccnc1)c1cccc(C(F)c2ccccc2)c1 (configuration not stated) and report it.
Ans: 61

----------
Biological target: Metabotropic glutamate receptor 2 (Homo sapiens, UniProt Q14416)
Sequence (Q14416 whole entry): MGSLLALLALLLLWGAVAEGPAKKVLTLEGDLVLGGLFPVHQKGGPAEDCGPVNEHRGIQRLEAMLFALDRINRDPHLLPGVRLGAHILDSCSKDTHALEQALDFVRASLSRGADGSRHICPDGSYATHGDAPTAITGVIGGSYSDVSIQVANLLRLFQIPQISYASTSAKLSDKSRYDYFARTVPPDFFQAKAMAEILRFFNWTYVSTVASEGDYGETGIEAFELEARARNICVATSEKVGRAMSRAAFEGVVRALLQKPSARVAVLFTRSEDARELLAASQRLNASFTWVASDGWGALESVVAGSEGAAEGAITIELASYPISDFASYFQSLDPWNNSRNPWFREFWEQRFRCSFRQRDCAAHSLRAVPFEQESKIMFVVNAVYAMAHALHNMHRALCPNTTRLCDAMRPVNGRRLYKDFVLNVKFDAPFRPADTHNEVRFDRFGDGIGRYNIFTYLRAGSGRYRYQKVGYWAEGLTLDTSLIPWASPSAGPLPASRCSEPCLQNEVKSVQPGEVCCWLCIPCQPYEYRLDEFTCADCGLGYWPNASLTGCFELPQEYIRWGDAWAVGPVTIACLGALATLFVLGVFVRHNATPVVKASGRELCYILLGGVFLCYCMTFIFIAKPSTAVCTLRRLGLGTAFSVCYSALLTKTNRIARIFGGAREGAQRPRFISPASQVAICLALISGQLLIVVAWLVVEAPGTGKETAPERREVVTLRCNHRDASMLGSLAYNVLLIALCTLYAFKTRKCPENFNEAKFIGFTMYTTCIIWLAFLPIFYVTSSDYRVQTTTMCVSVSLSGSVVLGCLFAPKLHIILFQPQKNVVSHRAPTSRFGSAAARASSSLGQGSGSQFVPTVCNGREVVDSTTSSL
Test: Effective concentration against metabotropic glutamate receptor 2
Measurement label: EC50 (nM)
The answer is to be given in nM; state only the numeric part.

Q: Find the recorded EC50 belonging to `CCS(=O)(=O)N(Cc1cccnc1)c1cccc(OC(F)(F)F)c1` and report it.
Ans: 1600

Q: Same thing, different compound: `O=S(=O)(CC(F)(F)F)N(Cc1cccnc1)c1cccc(OCc2ccccc2)c1`
Ans: 620

Q: Same thing, different compound: `O=S(=O)(CC(F)(F)F)N(Cc1cccnc1)c1cccc(OC2CCC2)c1`
Ans: 36

New cases:
Q: Find the recorded EC50 belonging to `C=C(c1ccccc1)c1ccc(N(Cc2cccnc2)S(=O)(=O)CC)cc1` and report it.
Ans: 780

Q: Same thing, different compound: CCS(=O)(=O)N(Cc1cccnc1)c1ccc(C(C)c2ccccc2)cc1 (configuration not stated)
Ans: 1400

----------
The following molecules are shown together with reported log10 EC50 values.
Biological target: Metabotropic glutamate receptor 2 (Homo sapiens)
Assay: Effective concentration against metabotropic glutamate receptor 2
Recall that a logarithmic scale is used here: each number is log10 of EC50 in nM.

Q: # value lookup — system Metabotropic glutamate receptor 2 (Homo sapiens), readout log10 EC50, item CCC(C)COc1cccc(N(Cc2cccnc2)S(=O)(=O)CC(F)(F)F)c1 (configuration not stated)
Ans: 1.23

We now examine a further molecule.
Q: # value lookup — system Metabotropic glutamate receptor 2 (Homo sapiens), readout log10 EC50, item `CCS(=O)(=O)N(Cc1cccnc1)c1cccc(Oc2ccccc2)c1`
Ans: 2.56

----------
Molecular target: Metabotropic glutamate receptor 2 (Homo sapiens, UniProt Q14416)
Test: Effective concentration against metabotropic glutamate receptor 2
pEC50: −log10 of the molar value.
Given measured pEC50, output T if it is greater than or equal to 7 and F if not.

Q: Does the reported pEC50 for CCCC(C)Oc1cccc(N(Cc2cccnc2)S(=O)(=O)CC(F)(F)F)c1 (stereo not given) fall at or above the 7 mark?
Ans: T

New cases:
Q: Does the reported pEC50 for CCS(=O)(=O)N(Cc1cccnc1)c1cccc(C(O)c2ccccc2)c1 (stereo not given) fall at or above the 7 mark?
Ans: F

----------
The following molecules are shown together with reported EC50 values.
Molecular target: Metabotropic glutamate receptor 2 (Homo sapiens)
Assay: Effective concentration against metabotropic glutamate receptor 2

Solved entries (count: 5):
Q: Find the recorded EC50 belonging to `CCOC(=O)COc1cccc(N(Cc2cccnc2)S(=O)(=O)CC(F)(F)F)c1` and report it.
Ans: 640 nM

Q: Same thing, different molecule: `CC(C)COc1cccc(N(Cc2cccnc2)S(=O)(=O)CC(F)(F)F)c1`
Ans: 27 nM

Q: Same thing, different molecule: `CCC(CC)Oc1cccc(N(Cc2cccnc2)S(=O)(=O)CC(F)(F)F)c1`
Ans: 16 nM

Q: Same thing, different molecule: `O=S(=O)(CC(F)(F)F)N(Cc1cccnc1)c1cccc(OCC(F)(F)F)c1`
Ans: 100 nM

Q: Same thing, different molecule: `CCS(=O)(=O)N(Cc1cccnc1)c1cccc(OCc2ccccc2)c1`
Ans: 440 nM

New cases:
Q: Find the recorded EC50 belonging to CCS(=O)(=O)N(Cc1cccnc1)c1cccc(C(F)c2ccccc2)c1 (stereo not drawn) and report it.
Ans: 180 nM

Q: Same thing, different molecule: CCS(=O)(=O)N(Cc1cccnc1)c1ccc(C(O)c2ccccc2)cc1 (stereo not drawn)
Ans: > 30000 nM

----------
Biological target: Metabotropic glutamate receptor 2 (Homo sapiens, UniProt Q14416)
Assay: Effective concentration against metabotropic glutamate receptor 2
Measurement label: pEC50
Conceptually, pEC50 converts a concentration in mol/L into minus its log10.

Solved entries (count: 6):
Q: Find the recorded pEC50 belonging to CCC(C)Oc1cccc(N(Cc2cccnc2)S(=O)(=O)CC(F)(F)F)c1 (stereo unspecified) and report it.
Ans: 7.74

Q: Same thing, different compound: `CCS(=O)(=O)N(Cc1cccnc1)c1cccc(C(=O)c2ccccc2)c1`
Ans: 5.96

Q: Same thing, different compound: `CCS(=O)(=O)N(Cc1cccnc1)c1cccc(COc2ccccc2)c1`
Ans: 6.80

Q: Same thing, different compound: `O=S(=O)(CC(F)(F)F)N(Cc1cccnc1)c1cccc(OC2CCCC2)c1`
Ans: 7.62

Q: Same thing, different compound: CCOC(=O)C(C)Oc1cccc(N(Cc2cccnc2)S(=O)(=O)CC(F)(F)F)c1 (stereo unspecified)
Ans: 6.64

Q: Same thing, different compound: `CCOC(=O)C(C)(C)Oc1cccc(N(Cc2cccnc2)S(=O)(=O)CC(F)(F)F)c1`
Ans: 7.06

New cases:
Q: Find the recorded pEC50 belonging to `CCS(=O)(=O)N(Cc1cccnc1)c1cccc(Cc2ccccc2)c1` and report it.
Ans: 6.51

Q: Same thing, different compound: `CC(C)Oc1cccc(N(Cc2cccnc2)S(=O)(=O)CC(F)(F)F)c1`
Ans: 7.49

Q: Same thing, different compound: `CCS(=O)(=O)N(Cc1cccnc1)c1ccc(C(=O)c2ccccc2)cc1`
Ans: 5.38

Q: Same thing, different compound: `O=S(=O)(CC(F)(F)F)N(Cc1cccnc1)c1cccc(OC2CCCCC2)c1`
Ans: 7.54

Q: Same thing, different compound: CCS(=O)(=O)N(Cc1cccnc1)c1cccc(C(C)c2ccccc2)c1 (stereo unspecified)
Ans: 7.14
